Origin of the recorded values: patent US9433622B2

# TESTED TARGET: TBK1 (Homo sapiens (Human), UniProt Q9UHD2)
# Sequence (Q9UHD2 whole entry): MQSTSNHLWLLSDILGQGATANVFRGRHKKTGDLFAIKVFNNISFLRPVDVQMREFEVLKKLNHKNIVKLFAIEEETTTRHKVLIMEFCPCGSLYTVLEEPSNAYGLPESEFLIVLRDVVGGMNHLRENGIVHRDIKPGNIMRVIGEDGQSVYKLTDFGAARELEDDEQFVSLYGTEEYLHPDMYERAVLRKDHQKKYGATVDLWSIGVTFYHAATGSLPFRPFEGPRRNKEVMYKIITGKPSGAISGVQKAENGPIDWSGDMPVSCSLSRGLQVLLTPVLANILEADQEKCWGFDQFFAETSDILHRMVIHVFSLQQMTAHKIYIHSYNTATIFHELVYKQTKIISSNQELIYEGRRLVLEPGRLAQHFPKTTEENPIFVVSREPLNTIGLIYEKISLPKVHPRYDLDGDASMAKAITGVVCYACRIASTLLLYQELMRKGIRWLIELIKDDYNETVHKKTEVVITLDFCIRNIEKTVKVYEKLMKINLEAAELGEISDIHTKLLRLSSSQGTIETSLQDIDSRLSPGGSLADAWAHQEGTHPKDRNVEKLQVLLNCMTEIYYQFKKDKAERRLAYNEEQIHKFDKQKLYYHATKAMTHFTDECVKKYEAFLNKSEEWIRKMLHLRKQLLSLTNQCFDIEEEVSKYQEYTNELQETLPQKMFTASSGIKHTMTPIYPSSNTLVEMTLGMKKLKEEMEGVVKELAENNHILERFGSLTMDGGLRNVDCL
# PROTOCOL SUMMARY: Lanthascreen TR-FRET kinase inhibition assay, TBK1
# Assay type: biochemical
# COND: 20 μM ATP (apparent Km), 8 nM kinase, 2.5 h
RECORDED METRIC: IC50

COMPOUND: N#Cc1nc(-c2nc(Nc3ccc(N4CCOCC4)cc3)ncc2F)ccc1N1CC[C@H](F)C1 [DMX-153]
TESTED TARGET: TBK1 (Homo sapiens (Human), UniProt Q9UHD2)
IC50: < 0.015 µM

COMPOUND: N#Cc1nc(-c2ccnc(Nc3ccc(N4CCOCC4)cc3)n2)ccc1N1CCCC1 [DMX-58]
TESTED TARGET: TBK1 (Homo sapiens (Human), UniProt Q9UHD2)
IC50: < 0.015 µM

COMPOUND: N#Cc1cc(-c2ccnc(Nc3cn[nH]c3)n2)cnc1N1CC[C@H](F)C1 [DMX-63]
TESTED TARGET: TBK1 (Homo sapiens (Human), UniProt Q9UHD2)
IC50: < 0.015 µM

COMPOUND: COCCN(C)Cc1ccc(Nc2nccc(-c3cnc(N4CC[C@H](F)C4)c(C#N)c3)n2)cn1 [DMX-82]
TESTED TARGET: TBK1 (Homo sapiens (Human), UniProt Q9UHD2)
IC50: < 0.1 µM

Dear colleague, I am looking for the recorded IC50 of the following compound: CN1Cc2ccc(Nc3nccc(-c4cnc(N5CC[C@H](F)C5)c(C#N)c4)n3)cc2C1 [DMX-76]
< 0.015 µM

Quick one: IC50 of N#Cc1cc(-c2ccnc(Nc3ccc(OCCN4CC[C@H](F)C4)nc3)n2)cnc1N1CC[C@H](F)C1 [DMX-70] ?
< 0.1 µM

State the recorded IC50 for this entry: COCCN(C)c1ncc(-c2ccnc(Nc3ccc(CN4CCOCC4)nc3)n2)cc1C#N [DMX-140]
< 1 µM

What value of IC50 has been recorded for this entry: CN1CCN(c2ccc(Nc3nccc(-c4cnc(N5CCCC5)c(C#N)c4)n3)cn2)CC1 [DMX-3]
< 0.015 µM

Param item = CN1CCN(C(=O)c2cccc(Nc3nccc(-c4cnc(N5CC[C@H](F)C5)c(C#N)c4)n3)c2)CC1 [DMX-6] ; retrieve measured IC50.
< 0.03 µM

I would be grateful if you could share the reported IC50 for CC(=O)Nc1ccc(Nc2nccc(-c3cnc(N[C@@H]4CCOC4)c(C#N)c3)n2)cn1 [DMX-113] .
< 1 µM

Any idea what its IC50 is? The compound is N#Cc1cc(-c2ccnc(Nc3ccc(NC(=O)C4CC4)nc3)n2)cnc1N1CC[C@H](F)C1 [DMX-19]
< 0.1 µM
